- TARGET_DESC: ELIC D113A/D158A (Dickeya chrysanthemi, UniProt P0C7B7, D113A/D158A/INS163G)
- Construct: expressed in transfected cells; host or cells: X. laevis oocytes
- ASSAY_NAME: cell-based
- Type: cell-based, Erwinia chrysanthemi
- CONDITIONS_USED: D113A/D158A; Schild analysis; read-out: Ki app
OBSERVED_PROPERTY: pKi
Reminder that pKi means the negative base-10 logarithm of the concentration expressed in mol/L.

Task: Quickly give me recorded pKi for [Ba+2]
Output: 2.19

---

- TARGET_DESC: ELIC WT (Dickeya chrysanthemi, UniProt P0C7B7)
- Construct: expressed in transfected cells; host or cells: X. laevis oocytes (cRNA injection, pTLN vector)
- ASSAY_NAME: cell-based
- Type: cell-based, Erwinia chrysanthemi
- CONDITIONS_USED: WT; ACh 1 mM; agonist cysteamine
OBSERVED_PROPERTY: pEC50
Reminder that pEC50 means the negative base-10 logarithm of the concentration expressed in mol/L.

Task: Report value: pEC50, system: ELIC WT (Dickeya chrysanthemi, UniProt P0C7B7), compound: NCCS
Output: 3.24

---

- TARGET_DESC: ELIC WT (Dickeya chrysanthemi)
- Construct: expressed in transfected cells; host or cells: X. laevis oocytes (cRNA injection, pTLN vector)
- ASSAY_NAME: cell-based
- Type: cell-based, Erwinia chrysanthemi
- CONDITIONS_USED: WT; Zn^2+ 0.1 mM; agonist propylamine
OBSERVED_PROPERTY: EC50

Task: Quickly give me recorded EC50 for CCCN [propylamine]
Output: 10.1 mM

---

- TARGET_DESC: ELIC D158N (Dickeya chrysanthemi, UniProt P0C7B7, D158N/INS163G)
- Construct: expressed in transfected cells; host or cells: X. laevis oocytes
- ASSAY_NAME: Two-electrode voltage clamp, ELIC D158N in oocytes
- Type: cell-based, Erwinia chrysanthemi
- CONDITIONS_USED: Ca^2+ 0 mM, agonist cysteamine
OBSERVED_PROPERTY: pEC50
Reminder that pEC50 means the negative base-10 logarithm of the concentration expressed in mol/L.

Task: Report value: pEC50, system: ELIC D158N (Dickeya chrysanthemi, UniProt P0C7B7, D158N/INS163G), molecule: NCCS [cysteamine]
Output: 2.41

---

- TARGET_DESC: ELIC D158A (Dickeya chrysanthemi, UniProt P0C7B7, D158A/INS163G)
- Construct: expressed in transfected cells; host or cells: X. laevis oocytes
- ASSAY_NAME: Two-electrode voltage clamp, ELIC D158A in oocytes
- Format: cell-based, Erwinia chrysanthemi
- CONDITIONS_USED: Ca^2+ 5 mM, agonist cysteamine
OBSERVED_PROPERTY: pEC50
Reminder that pEC50 means the negative base-10 logarithm of the concentration expressed in mol/L.

Task: Quickly give me recorded pEC50 for NCCS [cysteamine]
Output: 2.48

---

- TARGET_DESC: ELIC D113N (Dickeya chrysanthemi, UniProt P0C7B7, D113N/INS163G)
- Construct: expressed in transfected cells; host or cells: X. laevis oocytes
- ASSAY_NAME: Two-electrode voltage clamp, ELIC D113N in oocytes
- Assay type: cell-based, Erwinia chrysanthemi
- CONDITIONS_USED: Ca^2+ 5 mM, agonist cysteamine
OBSERVED_PROPERTY: pEC50
Reminder that pEC50 means the negative base-10 logarithm of the concentration expressed in mol/L.

Task: Report value: pEC50, system: ELIC D113N (Dickeya chrysanthemi, UniProt P0C7B7, D113N/INS163G), compound: NCCS [cysteamine]
Output: 2.25

---

- TARGET_DESC: ELIC WT (Dickeya chrysanthemi, UniProt P0C7B7)
- Construct: expressed in transfected cells; host or cells: X. laevis oocytes (cRNA injection, pTLN vector)
- ASSAY_NAME: cell-based
- Format: cell-based, Erwinia chrysanthemi
- CONDITIONS_USED: WT; Ba^2+ 10 mM; agonist cysteamine
- Experimental: Constructs containing the gene of either the WT or mutant channels preceded by the signal sequence of the chicken α7nAchR were cloned into the pTLN vector for expression in X. laevis oocytes. […] Currents were recorded in bath solutions containing 10 mM HEPES (pH 7), 130 mM NaCl, and the indicated concentrations of cysteamine and divalent cations. […]
OBSERVED_PROPERTY: pEC50
Reminder that pEC50 means the negative base-10 logarithm of the concentration expressed in mol/L.

Task: Quickly give me recorded pEC50 for NCCS
Output: 2.28

---

- TARGET_DESC: ELIC D86A (Dickeya chrysanthemi, UniProt P0C7B7, D86A/INS163G)
- Construct: expressed in transfected cells; host or cells: X. laevis oocytes
- ASSAY_NAME: Two-electrode voltage clamp, ELIC D86A in oocytes
- Assay type: cell-based, Erwinia chrysanthemi
- CONDITIONS_USED: Ca^2+ 10 mM, agonist cysteamine
OBSERVED_PROPERTY: EC50 (mM)
Response body: numeric value in mM, unit text excluded.

Task: Report value: EC50, system: ELIC D86A (Dickeya chrysanthemi, UniProt P0C7B7, D86A/INS163G), molecule: NCCS
Output: 11.2

---

- TARGET_DESC: ELIC E150A (Dickeya chrysanthemi, UniProt P0C7B7, E150A/INS163G)
- ASSAY_NAME: Two-electrode voltage clamp, ELIC E150A in oocytes
- CONDITIONS_USED: Schild analysis, read-out: Ki app
OBSERVED_PROPERTY: Ki (mM)
Response body: numeric value in mM, unit text excluded.

Task: Report value: Ki, system: ELIC E150A (Dickeya chrysanthemi, UniProt P0C7B7, E150A/INS163G), compound: [Ca+2] [Ca^2+, calcium]
Output: 1.7

---

- TARGET_DESC: ELIC WT (Dickeya chrysanthemi)
- Construct: expressed in transfected cells; host or cells: X. laevis oocytes (cRNA injection, pTLN vector)
- ASSAY_NAME: cell-based
- Assay type: cell-based, Erwinia chrysanthemi
- CONDITIONS_USED: WT/0.5Ca^2+; ACh 10 mM; agonist cysteamine
OBSERVED_PROPERTY: EC50 (mM)
Response body: numeric value in mM, unit text excluded.

Task: Quickly give me recorded EC50 for NCCS
Output: 8.45

---

- TARGET_DESC: ELIC WT (Dickeya chrysanthemi, UniProt P0C7B7, INS163G)
- Construct: expressed in transfected cells; host or cells: X. laevis oocytes (cRNA injection, pTLN vector)
- ASSAY_NAME: cell-based
- Type: cell-based, Erwinia chrysanthemi
- CONDITIONS_USED: WT; Schild plot slope; agonist cysteamine
- Method: Constructs containing the gene of either the WT or mutant channels preceded by the signal sequence of the chicken α7nAchR were cloned into the pTLN vector for expression in X. laevis oocytes. […] Currents were recorded in bath solutions containing 10 mM HEPES (pH 7), 130 mM NaCl, and the indicated concentrations of cysteamine and divalent cations. […]
OBSERVED_PROPERTY: Slope
I'd appreciate a reply containing only the number, no unit.

Task: Quickly give me recorded Slope for [Sr+2]
Output: 0.9

Task: Quickly give me recorded Slope for [Mg+2]
Output: 0.9

Task: Quickly give me recorded Slope for CC(=O)OCC[N+](C)(C)C
Output: 1.0

Task: Quickly give me recorded Slope for [Ba+2]
Output: 1.1

---

- TARGET_DESC: ELIC D86A (Dickeya chrysanthemi, UniProt P0C7B7, D86A/INS163G)
- Construct: expressed in transfected cells; host or cells: X. laevis oocytes
- ASSAY_NAME: Two-electrode voltage clamp, ELIC D86A in oocytes
- Type: cell-based, Erwinia chrysanthemi
- CONDITIONS_USED: Ca^2+ 5 mM, agonist cysteamine
OBSERVED_PROPERTY: EC50
Include the unit after the number when you answer.

Task: Quickly give me recorded EC50 for NCCS [cysteamine]
Output: 5.31 mM

---

- TARGET_DESC: ELIC WT (Dickeya chrysanthemi, UniProt P0C7B7, INS163G)
- Construct: expressed in transfected cells; host or cells: X. laevis oocytes (cRNA injection, pTLN vector)
- ASSAY_NAME: cell-based
- Type: cell-based, Erwinia chrysanthemi
- CONDITIONS_USED: WT; Schild analysis; agonist propylamine; read-out: Ki app
OBSERVED_PROPERTY: pKi
Reminder that pKi means the negative base-10 logarithm of the concentration expressed in mol/L.

Task: Quickly give me recorded pKi for [Zn+2] [Zn^2+, zinc]
Output: 5.15

---

- TARGET_DESC: ELIC H176A (Dickeya chrysanthemi, UniProt P0C7B7, H176A/INS163G)
- Construct: expressed in transfected cells; host or cells: X. laevis oocytes
- ASSAY_NAME: Two-electrode voltage clamp, ELIC H176A in oocytes
- Assay type: cell-based, Erwinia chrysanthemi
- CONDITIONS_USED: Zn^2+ 0.025 mM, agonist propylamine
OBSERVED_PROPERTY: pEC50
Reminder that pEC50 means the negative base-10 logarithm of the concentration expressed in mol/L.

Task: Quickly give me recorded pEC50 for CCCN [propylamine]
Output: 1.59

These measurements were taken from paper PMC3502511.
